# System: Talaromyces funiculosus
# test-protocol: Antifungal activity against Talaromyces funiculosus ATCC 36839 at 28 degC measured after 72 hr by microdilution method
# Type: functional
# assay-setup: ATCC 36839, 72 h
measured-metric: MIC (µM)
Answers are plain numbers, in µM.

Example results:
| molecule | MIC / µM |
| --- | --- |
| COc1cc(Cc2nnc(Nc3ccc(Cl)cc3)s2)c(S(=O)(=O)N2CCCC2)cc1OC | 10.1 |
| COc1cc(Cc2nnc(Nc3ccc([N+](=O)[O-])cc3)s2)c(S(=O)(=O)N2CCCC2)cc1OC | 9.9 |
| CC(=O)N1CCN(c2ccc(OCC3COC(Cn4ccnc4)(c4ccc(Cl)cc4Cl)O3)cc2)CC1 (stereo not given) [KETOCONAZOLE] | 380 |
| COc1cc(Cc2nnc(Nc3ccccc3)s2)c(S(=O)(=O)N(C)C)cc1OC | 11.5 |

Okay, next one:
Record COc1cc(Cc2nnc(Nc3ccc(Cl)cc3)s2)c(S(=O)(=O)N(C)C)cc1OC has Talaromyces funiculosus MIC equal to 10.7

Source: ChEMBL document CHEMBL3045677
